I'd appreciate it if you could supply melting temperature values for the items below.
System: HeLa Kyoto;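 also: HeLa Kyoto cells synchronized by double thymidine or nocodazole block, proteins quantified by TMT10plex mass spectrometry, three independent biological replicates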
test-method-notes: melting temperature (median over replicates), in situ; higher = more thermally stable
setup-conditions: cell cycle stage: G1/S
State the answer as a number, implicitly in °C.

Qu. Answer briefly: melting temperature recorded on HeLa Kyoto for MAAAAPGNGRASAPRLLLLFLVPLLWAPAAVRAGPDEDLSHRNKEPPAPAQQLQPQPVAVQGPEPARVEKIFTPAAPVHTNKEDPATQTNLGFIHAFVAAISVIIVSELGDKTFFIAAIMAMRYNRLTVLAGAMLALGLMTCLSVLFGYATTVIPRVYTYYVSTVLFAIFGIRMLREGLKMSPDEGQEELEEVQAELKKKDEEFQRTKLLNGPGDVETGTSITVPQKKWLHFISPIFVQALTLTFLAEWGDRSQLTTIVLAAREDPYGVAVGGTVGHCLCTGLAVIGGRMIAQKISVRTVTIIGGIVFLAFAFSALFISPDSGF [TMEM165]
Ans. 60.8

Qu. Answer briefly: melting temperature recorded on HeLa Kyoto for MLPAALLRRPGLGRLVRHARAYAEAAAAPAAASGPNQMSFTFASPTQVFFNGANVRQVDVPTLTGAFGILAAHVPTLQVLRPGLVVVHAEDGTTSKYFVSSGSIAVNADSSVQLLAEEAVTLDMLDLGAAKANLEKAQAELVGTADEATRAEIQIRIEANEALVKALE [ATP5D]
Ans. 55.7

Qu. Answer briefly: melting temperature recorded on HeLa Kyoto for MTGQGQSASGSSAWSTVFRHVRYENLIAGVSGGVLSNLALHPLDLVKIRFAVSDGLELRPKYNGILHCLTTIWKLDGLRGLYQGVTPNIWGAGLSWGLYFFFYNAIKSYKTEGRAERLEATEYLVSAAEAGAMTLCITNPLWVTKTRLMLQYDAVVNSPHRQYKGMFDTLVKIYKYEGVRGLYKGFVPGLFGTSHGALQFMAYELLKLKYNQHINRLPEAQLSTVEYISVAALSKIFAVAATYPYQVVRARLQDQHMFYSGVIDVITKTWRKEGVGGFYKGIAPNLIRVTPACCITFVVYENVSHFLLDLREKRK [SLC25A32]
Ans. 56.8

Qu. Answer briefly: melting temperature recorded on HeLa Kyoto for MAPHDPGSLTTLVPWAAALLLALGVERALALPEICTQCPGSVQNLSKVAFYCKTTRELMLHARCCLNQKGTILGLDLQNCSLEDPGPNFHQAHTTVIIDLQANPLKGDLANTFRGFTQLQTLILPQHVNCPGGINAWNTITSYIDNQICQGQKNLCNNTGDPEMCPENGSCVPDGPGLLQCVCADGFHGYKCMRQGSFSLLMFFGILGATTLSVSILLWATQRRKAKTS [ATRAID]
Ans. 53.9

Qu. Answer briefly: melting temperature recorded on HeLa Kyoto for MGRLVAVGLLGIALALLGERLLALRNRLKASREVESVDLPHCHLIKGIEAGSEDIDILPNGLAFFSVGLKFPGLHSFAPDKPGGILMMDLKEEKPRARELRISRGFDLASFNPHGISTFIDNDDTVYLFVVNHPEFKNTVEIFKFEEAENSLLHLKTVKHELLPSVNDITAVGPAHFYATNDHYFSDPFLKYLETYLNLHWANVVYYSPNEVKVVAEGFDSANGINISPDDKYIYVADILAHEIHVLEKHTNMNLTQLKVLELDTLVDNLSIDPSSGDIWVGCHPNGQKLFVYDPNNPPSSEVLRIQNILSEKPTVTTVYANNGSVLQGSSVASVYDGKLLIGTLYHRALYCEL [PON2]
Ans. 53.6

Qu. Answer briefly: melting temperature recorded on HeLa Kyoto for MNIMDFNVKKLAADAGTFLSRAVQFTEEKLGQAEKTELDAHLENLLSKAECTKIWTEKIMKQTEVLLQPNPNARIEEFVYEKLDRKAPSRINNPELLGQYMIDAGTEFGPGTAYGNALIKCGETQKRIGTADRELIQTSALNFLTPLRNFIEGDYKTIAKERKLLQNKRLDLDAAKTRLKKAKAAETRNSSEQELRITQSEFDRQAEITRLLLEGISSTHAHHLRCLNDFVEAQMTYYAQCYQYMLDLQKQLGSFPSNYLSNNNQTSVTPVPSVLPNAIGSSAMASTSGLVITSPSNLSDLKECSGSRKARVLYDYDAANSTELSLLADEVITVFSVVGMDSDWLMGERGNQKGKVPITYLELLN [SH3GLB1]
Ans. 48.1

Qu. Answer briefly: melting temperature recorded on HeLa Kyoto for MRPGAPGPLWPLPWGALAWAVGFVSSMGSGNPAPGGVCWLQQGQEATCSLVLQTDVTRAECCASGNIDTAWSNLTHPGNKINLLGFLGLVHCLPCKDSCDGVECGPGKACRMLGGRPRCECAPDCSGLPARLQVCGSDGATYRDECELRAARCRGHPDLSVMYRGRCRKSCEHVVCPRPQSCVVDQTGSAHCVVCRAAPCPVPSSPGQELCGNNNVTYISSCHMRQATCFLGRSIGVRHAGSCAGTPEEPPGGESAEEEENFV [FSTL3]
Ans. 51.7

Qu. Answer briefly: melting temperature recorded on HeLa Kyoto for MRRLNRKKTLSLVKELDAFPKVPESYVETSASGGTVSLIAFTTMALLTIMEFSVYQDTWMKYEYEVDKDFSSKLRINIDITVAMKCQYVGADVLDLAETMVASADGLVYEPTVFDLSPQQKEWQRMLQLIQSRLQEEHSLQDVIFKSAFKSTSTALPPREDDSSQSPNACRIHGHLYVNKVAGNFHITVGKAIPHPRGHAHLAALVNHESYNFSHRIDHLSFGELVPAIINPLDGTEKIAIDHNQMFQYFITVVPTKLHTYKISADTHQFSVTERERIINHAAGSHGVSGIFMKYDLSSLMVTVTEEHMPFWQFFVRLCGIVGGIFSTTGMLHGIGKFIVEIICCRFRLGSYKPVNSVPFEDGHTDNHLPLLENNTH [ERGIC2]
Ans. 54.8

Qu. Answer briefly: melting temperature recorded on HeLa Kyoto for MEADKDDTQQILKEHSPDEFIKDEQNKGLIDEITKKNIQLKKEIQKLETELQEATKEFQIKEDIPETKMKFLSVETPENDSQLSNISCSFQVSSKVPYEIQKGQALITFEKEEVAQNVVSMSKHHVQIKDVNLEVTAKPVPLNSGVRFQVYVEVSKMKINVTEIPDTLREDQMRDKLELSFSKSRNGGGEVDRVDYDRQSGSAVITFVEIGVADKILKKKEYPLYINQTCHRVTVSPYTEIHLKKYQIFSGTSKRTVLLTGMEGIQMDEEIVEDLINIHFQRAKNGGGEVDVVKCSLGQPHIAYFEE [NMI]
Ans. 55.4

Data origin, for the record: the supplement of paper PMC5998384
